Ki: recorded values
# assayName: Displacement of [3H]NCS-382 from GABAB receptor gamma-hydroxybutyric acid binding site in rat cerebral cortex synaptic membranes after 1 hr by liquid scintillation counting
# Type: cell membranes, Membrane
Expressed in nM, but write only the number.

[N-]=[N+]=Nc1ccc(COc2ccc(C(O)CCC(=O)O)cc2)cc1I (stereo not drawn) :: 186
O=C(O)CCC(O)c1ccc(OCc2cccc(I)c2)cc1 (stereo not drawn) :: 75

Kindly review the next compound as well.
# get_value(readout='Ki', item= [N-]=[N+]=Nc1ccc(I)cc1COc1ccc(C(O)CCC(=O)O)cc1 (stereo not drawn) )
120

Hey, just so you know, these numbers are from ChEMBL document CHEMBL1240511.
